- System Name: T1, BRD^Baz2B D2143N (human, UniProt Q9UIF8 2054-2168, D2143N, fluorescent label (Monolith NT Protein Labelling Kit RED-NHS))
- T1 construct: bromodomain (BRD) of human Baz2B with a cancer-associated point mutation, made on pNIC28-Bsa4-BAZ2B-BRD; Same limits as m1; mutation found in breast invasive carcinoma; source: E. coli BL21(DE3)-R3-pRARE2, purified (Ni-NTA, Sephadex 75)
- T1 sequence: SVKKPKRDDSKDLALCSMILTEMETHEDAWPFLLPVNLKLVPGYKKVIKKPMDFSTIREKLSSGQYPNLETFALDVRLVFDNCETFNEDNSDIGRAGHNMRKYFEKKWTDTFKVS
- Assay Text: MST; 100 nM fluorescently labelled (RED-NHS) BRD^Baz2B, peptide (H3 or H3K14ac) titrated; MST buffer 150 mM Tris-HCl, 50 mM NaCl, 10 mM MgCl2, pH 7.6, 0.0025% Pluronic, 200 ng/ul BSA; 25 C, 20% MST power; at least triplicate
- Condition Description: both partners purified
Form field: Kd (one value per entry).
Use µM as the unit, but write only the number.

Ac-TARKSTGGKAPRKQL-NH2 (N-terminal tail of histone H3, residues 6-20; also called unmodified H3 peptide; unmodified H3K14 tail peptide; source: synthetic peptide, bought: alta Bioscience) [H3 peptide (Ac-TARKSTGGKAPRKQL-NH2)] : 42

Input line: Annotate the binder Ac-TARKSTGGK(Ac)APRKQL-NH2 (N-terminal tail of histone H3, residues 6-20; also called acetylated H3 tail peptide; acetylated at K14 (K14ac) N-terminal H3 histone tail peptide; source: synthetic peptide, bought: alta Bioscience) [H3K14ac peptide (Ac-TARKSTGGK(ac)APRKQL-NH2)] with its measured Kd.
Output line: 133
